A collection of compounds and their measured pEC50
# Test system: Cisd2 promoter with firefly luciferase reporter (HEK293-CISD2)
# Procedure summary: Cisd2-luciferase reporter assay
# Format: cell-based
# Assay setup: Homo sapiens; HEK293-CISD2 cells, 24 h incubation, luciferase activity
pEC50: −log10 of the molar value.

- Smiles text: "COC(=O)c1c(N)sc(C(=O)Nc2ccc(C#N)cc2)c1C"
  Test target: "Cisd2 promoter with firefly luciferase reporter (HEK293-CISD2)"
  pEC50: "> 6.00"
- Smiles text: "COC(=O)c1c(N)sc(C(=O)Nc2ccc(C(F)(F)F)cc2)c1C"
  Test target: "Cisd2 promoter with firefly luciferase reporter (HEK293-CISD2)"
  pEC50: "> 6.00"
- Smiles text: "COC(=O)c1c(N)sc(C(=O)OC(C)(C)C)c1C"
  Test target: "Cisd2 promoter with firefly luciferase reporter (HEK293-CISD2)"
  pEC50: "5.00 to 6.00"
- Smiles text: "COC(=O)c1c(N)sc(C(=O)Nc2ccccc2C)c1C"
  Test target: "Cisd2 promoter with firefly luciferase reporter (HEK293-CISD2)"
  pEC50: "> 6.00"
- Smiles text: "Cc1ccc(NC(=O)c2sc(N)c(C(=O)OC(C)(C)C)c2C)c(C)c1"
  Test target: "Cisd2 promoter with firefly luciferase reporter (HEK293-CISD2)"
  pEC50: "5.00 to 6.00"
